Organism: Rattus norvegicus
Assay: Antihypertensive activity expressed as percentage of base-line systolic blood pressure of base-line values in spontaneously hypertensive rats (SHR) was reported after 2 hr; note: test concentration or dose not given here
Type: functional, Artery
measure: Baseline systolic BP (%)

molecule	measure	unitAnnotation	measurement
CC(C)NCC(O)COc1ccc(CCOCC2CC2)cc1 (stereo unspecified) [BETAXOLOL]	Baseline systolic BP	%	3
CC(=O)NCCNCC(O)COc1ccc(CCOCC2CCC2)cc1.Cl (stereo unspecified)	Baseline systolic BP	%	-6
CC(CCc1ccc(F)cc1)NCC(O)COc1ccc(CCOCC2CCC2)cc1 (stereo unspecified)	Baseline systolic BP	%	-4
COCCc1ccc(OCC(O)CNC(C)C)cc1 (stereo unspecified) [METOPROLOL]	Baseline systolic BP	%	4
CC(C)NCC(O)COc1ccc(CCOC2CCCC2)cc1 (stereo unspecified)	Baseline systolic BP	%	-17
CC(C)NCC(O)COc1ccc(CCOCC2CCCC2)cc1 (stereo unspecified)	Baseline systolic BP	%	-21
